# Tested on: Rattus norvegicus
# experiment: Antihyperlipidemic effect in STZ-induced type 2 diabetes male Wistar albino rat model assessed as HDL level at 10 mg/kg, po measured after 4 weeks (reference value: 25.54 +/- 2.62 mg/dL)
# Format: functional
measurement-type: Activity
The number alone won't do; follow it with the unit.

# compound, Activity
data = [
    ("CC1=C(C(=O)O)C(c2ccc(F)c(F)c2)N=C(N)N1C(=O)CN1CCCC(N)C1 (stereo not given)", "48.23 mg/dL"),
    ("CC1=C([N+](=O)[O-])C(c2ccc(F)c(F)c2)N=C(N)N1C(=O)CN1Cc2cn(S(C)(=O)=O)nc2C1 (stereo not given)", "46.32 mg/dL"),
    ("CC1=C(C(=O)O)C(c2ccc(F)c(F)c2)N=C(N)N1C(=O)CN1CCn2c(nnc2C(F)(F)F)C1 (stereo not given)", "48.67 mg/dL"),
]

-- ask Item CC1=C(C(=O)O)C(c2ccc(F)c(F)c2)N=C(N)N1C(=O)CN1Cc2cn(S(C)(=O)=O)nc2C1 (stereo not given) has what recorded Activity?
-- reply 45.9 mg/dL

-- ask Item CC1=C([N+](=O)[O-])C(c2ccc(F)c(F)c2)N=C(N)N1C(=O)CN1CCn2c(nnc2C(F)(F)F)C1 (stereo not given) has what recorded Activity?
-- reply 46.34 mg/dL

* * *

# Tested on: Rattus norvegicus
# experiment: Anti-diabetic activity in normal Wistar rat model assessed as blood glucose level at 20 mg/kg, po followed by treated administered 3 mg/kg orally measured after 30 mins by Oral glucose tolerance test (reference value: 176.14 + /- 4.04 mg/dL)
# Format: functional
# settings: 0.5 h
Listing of entries alongside the reported Activity.
Write the number in mg/dL without appending the unit.

The following molecules have reported results that may help.
# molecule, readout-unit, Activity
measured = [
    ("CC1=C(C(=O)O)C(c2ccc(F)c(F)c2)N=C(N)N1C(=O)CN1Cc2cn(S(C)(=O)=O)nc2C1 (stereo not given)", "mg/dL", 116.78),
    ("CC1=C(C(=O)O)C(c2ccc(F)c(F)c2)N=C(N)N1C(=O)CN1CCCC(N)C1 (stereo not given)", "mg/dL", 115.15),
    ("CC1=C([N+](=O)[O-])C(c2ccc(F)c(F)c2)N=C(N)N1C(=O)CN1CCn2c(nnc2C(F)(F)F)C1 (stereo not given)", "mg/dL", 117.46),
    ("CC1=C([N+](=O)[O-])C(c2ccc(F)c(F)c2)N=C(N)N1C(=O)CN1Cc2cn(S(C)(=O)=O)nc2C1 (stereo not given)", "mg/dL", 119.42),
]

-- ask Item CC1=C(C(=O)O)C(c2ccc(F)c(F)c2)N=C(N)N1C(=O)CN1CCn2c(nnc2C(F)(F)F)C1 (stereo not given) has what recorded Activity?
-- reply 114.05

* * *

Listing of entries alongside the reported pIC50.
# assay-target: Dipeptidyl peptidase 4 (Homo sapiens, UniProt P27487)
# Sequence (P27487 whole entry): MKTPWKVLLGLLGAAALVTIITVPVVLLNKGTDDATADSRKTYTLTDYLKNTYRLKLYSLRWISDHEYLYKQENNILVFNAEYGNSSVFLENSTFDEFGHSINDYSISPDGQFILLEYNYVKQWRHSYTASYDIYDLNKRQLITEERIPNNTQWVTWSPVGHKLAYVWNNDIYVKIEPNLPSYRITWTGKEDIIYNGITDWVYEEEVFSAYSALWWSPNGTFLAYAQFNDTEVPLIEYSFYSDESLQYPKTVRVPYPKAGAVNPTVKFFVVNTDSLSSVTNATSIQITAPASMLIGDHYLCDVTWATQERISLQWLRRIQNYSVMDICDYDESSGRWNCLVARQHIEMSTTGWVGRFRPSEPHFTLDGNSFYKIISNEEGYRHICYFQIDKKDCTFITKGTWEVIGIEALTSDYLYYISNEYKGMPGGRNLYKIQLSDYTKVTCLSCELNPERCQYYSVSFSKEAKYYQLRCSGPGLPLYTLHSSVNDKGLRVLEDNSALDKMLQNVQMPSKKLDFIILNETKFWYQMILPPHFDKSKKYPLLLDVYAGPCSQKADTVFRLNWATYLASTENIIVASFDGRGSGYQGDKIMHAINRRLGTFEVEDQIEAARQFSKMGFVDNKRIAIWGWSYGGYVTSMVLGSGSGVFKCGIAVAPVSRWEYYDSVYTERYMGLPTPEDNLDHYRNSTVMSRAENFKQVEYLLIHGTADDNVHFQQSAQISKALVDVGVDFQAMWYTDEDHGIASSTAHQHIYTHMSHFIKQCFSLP
# experiment: Inhibition of DPP4 (unknown origin) assessed as hydrolysis rate using Gly-pro-p-nitroanilide as substrate measured after 20 mins incubation by fluorometric assay
pIC50 is a log-scale quantity: -log10 of the concentration expressed in molar.

The following compounds have reported results that may help.
# compound, assay-target, pIC50
rows = [
    ("CC1=C(CC(=O)N2CCCC(N)C2)C(c2ccc(F)c(F)c2)NC(=O)N1 (centres undefined)", "Dipeptidyl peptidase 4 (Homo sapiens, UniProt P27487)", 5.98),
    ("CC1=C(CC(=O)N2CCCC(N)C2)C(C)NC(=O)N1 (centres undefined)", "Dipeptidyl peptidase 4 (Homo sapiens, UniProt P27487)", 5.92),
    ("CC1=C(CC(=O)N2CCn3c(nnc3C(F)(F)F)C2)C(c2ccc(F)c(F)c2)NC(=O)N1 (centres undefined)", "Dipeptidyl peptidase 4 (Homo sapiens, UniProt P27487)", 5.97),
]

-- ask Param readout = pIC50; param system = Dipeptidyl peptidase 4 (Homo sapiens, UniProt P27487); param query = Cc1nc(N2Cc3cn(S(C)(=O)=O)nc3C2)nc(C)c1CC(=O)O ; response: value
-- reply 6.11

-- ask Param readout = pIC50; param system = Dipeptidyl peptidase 4 (Homo sapiens, UniProt P27487); param query = CC1=C(CC(=O)N2CCCC2C#N)C(C)NC(=O)N1 (centres undefined) ; response: value
-- reply 5.99

-- ask Param readout = pIC50; param system = Dipeptidyl peptidase 4 (Homo sapiens, UniProt P27487); param query = CC1=C([N+](=O)[O-])C(c2ccc(F)c(F)c2)N=C(N)N1C(=O)CN1CCCC1C#N (centres undefined) ; response: value
-- reply 6.15

-- ask Param readout = pIC50; param system = Dipeptidyl peptidase 4 (Homo sapiens, UniProt P27487); param query = CC1=C([N+](=O)[O-])C(c2ccc(F)c(F)c2)N=C(N)N1C(=O)CN1Cc2cn(S(C)(=O)=O)nc2C1 (centres undefined) ; response: value
-- reply 7.26

-- ask Param readout = pIC50; param system = Dipeptidyl peptidase 4 (Homo sapiens, UniProt P27487); param query = Cc1nc(N2CCn3c(nnc3C(F)(F)F)C2)nc(C)c1CC(=O)O ; response: value
-- reply 6.65

-- ask Param readout = pIC50; param system = Dipeptidyl peptidase 4 (Homo sapiens, UniProt P27487); param query = CC1=C(C(=O)O)C(c2ccc(F)c(F)c2)N=C(N)N1C(=O)CN1CCCC1C#N (centres undefined) ; response: value
-- reply 6.41
